Hi there, I'd appreciate the recorded pKi for every entry that follows.
# tgt: human σ1 receptor (Homo sapiens (Human), UniProt Q99720)
# Sequence (Q99720 whole entry): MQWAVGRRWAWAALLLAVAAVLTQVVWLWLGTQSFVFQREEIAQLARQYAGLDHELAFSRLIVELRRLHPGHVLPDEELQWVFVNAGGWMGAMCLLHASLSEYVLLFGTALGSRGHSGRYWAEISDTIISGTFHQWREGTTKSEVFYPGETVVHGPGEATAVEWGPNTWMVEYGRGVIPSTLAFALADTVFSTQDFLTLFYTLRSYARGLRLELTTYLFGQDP
pKi: −log10 of the molar value.

Each molecule below has a reported value. Please supply its pKi.
1. c1ccc(CN2CCCC3(C2)CN(c2ccccc2)CC2(CC2)O3)cc1 (centres unmarked)
2. c1ccc(CN2CCCC3(CC2)CN(c2ccccc2)CC2(CC2)O3)cc1 (centres unmarked)

OUTPUT:
1. > 6.30
2. > 7.00

Each molecule below has a reported value. Please supply its pKi.
1. O=C1N(c2ccccc2)CC2(CCCN(CCc3ccccc3)C2)OC12CC2 (centres unmarked)
2. CCN1C[C@]2(CCCN(Cc3ccccc3)CC2)OC2(CC2)C1=O
3. CCN1CC2(CCCN(Cc3ccccc3)CC2)OC(C)(C)C1=O (centres unmarked)

OUTPUT:
1. > 6.30
2. > 7.00
3. > 7.00
